Entries annotated with measured IC50
tested_on: purified HLA DRB1*1501 (Homo sapiens, UniProt P01903+P01911)
Construct: purified from EBV transformed homozygous cell lines or single MHC allele transfected 721.221, C1R, or fibroblast lines; made in house
protocol_text: HLA-DR radioligand binding inhibition assay, DRB1*1501
Give the value in nM but do not write nM after it.

IN: Look up and report measured IC50 for this entry: CC(C)C[C@H](NC(=O)[C@H](CC(N)=O)NC(=O)[C@H](C)NC(=O)CNC(=O)[C@H](CO)NC(=O)[C@H](CC(C)C)NC(=O)[C@H](Cc1ccc(O)cc1)NC(=O)[C@H](CO)NC(=O)[C@@H](N)CO)C(=O)N[C@@H](CC(N)=O)C(=O)N[C@@H](CC(C)C)C(=O)N[C@@H](CO)C(=O)N[C@@H](CS)C(=O)N[C@@H](Cc1c[nH]cn1)C(=O)N[C@@H](CO)C(=O)O [Peptide 9019.0137]
OUT: 13000

IN: Look up and report measured IC50 for this entry: CC[C@H](C)[C@H](NC(=O)[C@@H](NC(=O)[C@@H](NC(=O)[C@@H](NC(=O)[C@@H](NC(=O)[C@@H](NC(=O)[C@@H](N)CCCNC(=N)N)[C@@H](C)O)[C@@H](C)O)C(C)C)[C@@H](C)O)[C@@H](C)O)C(=O)N[C@H](C(=O)N[C@H](C(=O)N[C@@H](Cc1ccc(O)cc1)C(=O)N[C@@H](C)C(=O)N[C@@H](CCC(=O)O)C(=O)N1CCC[C@H]1C(=O)N1CCC[C@H]1C(=O)N[C@@H](CCCCN)C(=O)O)C(C)C)[C@@H](C)O [Peptide 9019.0124]
OUT: 83

IN: Look up and report measured IC50 for this entry: CC(C)C[C@H](NC(=O)[C@H](CCC(=O)O)NC(=O)[C@H](CCCNC(=N)N)NC(=O)[C@H](CC(C)C)NC(=O)CNC(=O)CNC(=O)[C@@H]1CCCN1C(=O)[C@H](CO)NC(=O)[C@H](C)NC(=O)CNC(=O)[C@@H](NC(=O)[C@@H](NC(=O)[C@@H]1CCCN1C(=O)[C@@H](NC(=O)[C@@H](N)[C@@H](C)O)[C@@H](C)O)C(C)C)[C@@H](C)O)C(=O)O [Peptide 9019.0037]
OUT: 17100

IN: Look up and report measured IC50 for this entry: CSCC[C@H](NC(=O)[C@H](CC(N)=O)NC(=O)[C@H](CCC(N)=O)NC(=O)[C@H](CCC(N)=O)NC(=O)[C@H](C)NC(=O)[C@H](CCC(N)=O)NC(=O)[C@H](CCCNC(=N)N)NC(=O)[C@H](CC(C)C)NC(=O)[C@H](CO)NC(=O)[C@H](CO)NC(=O)[C@H](CCC(=O)O)NC(=O)[C@H](CC(C)C)NC(=O)[C@H](CC(C)C)NC(=O)[C@H](C)NC(=O)[C@@H](N)CCC(=O)O)C(=O)O [Peptide 9019.0014]
OUT: 8180

IN: Look up and report measured IC50 for this entry: CC[C@H](C)[C@H](N)C(=O)N[C@@H](CC(N)=O)C(=O)NCC(=O)N[C@H](C(=O)N1CCC[C@H]1C(=O)N[C@@H](CCC(N)=O)C(=O)N[C@@H](CCC(N)=O)C(=O)N[C@@H](Cc1c[nH]cn1)C(=O)N[C@H](C(=O)N[C@@H](CCC(N)=O)C(=O)N[C@H](C(=O)N[C@@H](CC(C)C)C(=O)N[C@@H](Cc1ccccc1)C(=O)N[C@H](C(=O)N[C@@H](C)C(=O)O)[C@@H](C)CC)C(C)C)[C@@H](C)O)[C@@H](C)CC [Peptide 9019.0139]
OUT: 8290

IN: Look up and report measured IC50 for this entry: CC(C)C[C@H](NC(=O)[C@H](C)NC(=O)[C@H](Cc1ccc(O)cc1)NC(=O)[C@H](CC(N)=O)NC(=O)[C@H](CC(=O)O)NC(=O)[C@H](CCC(=O)O)NC(=O)[C@H](Cc1ccccc1)NC(=O)[C@H](CC(C)C)NC(=O)[C@H](CCC(N)=O)NC(=O)[C@@H](NC(=O)CN)[C@@H](C)O)C(=O)N[C@@H](C)C(=O)N[C@H](C(=O)N[C@@H](CC(C)C)C(=O)N[C@@H](CC(=O)O)C(=O)O)C(C)C [Peptide 9019.0001]
OUT: 450

IN: Look up and report measured IC50 for this entry: CC[C@H](C)[C@H](NC(=O)[C@H](CS)NC(=O)[C@H](Cc1c[nH]c2ccccc12)NC(=O)[C@@H](N)CCCNC(=N)N)C(=O)N1CCC[C@H]1C(=O)N[C@@H](Cc1c[nH]c2ccccc12)C(=O)N[C@@H](CCC(N)=O)C(=O)N[C@@H](CCCNC(=N)N)C(=O)N[C@@H](CC(C)C)C(=O)N[C@@H](CC(C)C)C(=O)N[C@@H](CC(C)C)C(=O)N[C@H](C(=O)N[C@@H](C)C(=O)N[C@@H](CO)C(=O)N[C@@H](CC(C)C)C(=O)O)[C@@H](C)O [Peptide 9019.0104]
OUT: 61

IN: Look up and report measured IC50 for this entry: CC[C@H](C)[C@H](NC(=O)[C@@H](NC(=O)[C@@H]1CCCN1C(=O)[C@H](CC(=O)O)NC(=O)[C@@H](N)CO)C(C)C)C(=O)N[C@@H](CC(C)C)C(=O)N[C@@H](CC(N)=O)C(=O)N[C@H](C(=O)N[C@@H](CC(C)C)C(=O)N[C@@H](Cc1ccc(O)cc1)C(=O)NCC(=O)N1CCC[C@H]1C(=O)N[C@@H](CC(=O)O)C(=O)N[C@@H](CC(=O)O)C(=O)N1CCC[C@H]1C(=O)O)C(C)C [Peptide 9019.0127]
OUT: 5700
